B1: CPEB3 Ribozyme (parent)
chain: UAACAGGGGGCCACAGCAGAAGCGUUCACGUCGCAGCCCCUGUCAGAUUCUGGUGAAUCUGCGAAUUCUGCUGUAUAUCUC

# Variants of: B1
# run-description: self-cleavage, relative activity (ratio to wild type); higher = more cleavage; in vitro, sequencing
Label false if self-cleavage falls below 0.4; label true in every other case.

variant_code="A47G A75C" class_assignment=true
variant_code="A18C U54A" class_assignment=false
variant_code="G24U A35G" class_assignment=true
variant_code="U41A U66C" class_assignment=false
variant_code="A35U C39A" class_assignment=false
variant_code="G10A G55A" class_assignment=false

Exam item: decide whether the reported self-cleavage for A35U G52C is at least 0.4.
true

Exam item: decide whether the reported self-cleavage for A57U U72A is at least 0.4.
true

Exam item: decide whether the reported self-cleavage for U25C G61U is at least 0.4.
false

Exam item: decide whether the reported self-cleavage for G33U U69C is at least 0.4.
false

Exam item: decide whether the reported self-cleavage for U49A G55C is at least 0.4.
true

Exam item: decide whether the reported self-cleavage for A21G U41G is at least 0.4.
false

// data source = the RNAGym collection of RNA variant scans (doi:10.1093/nar/gkz1192)
